test: yeast display, Sf9 membrane polyspecificity reagent, FACS + sequencing; frameworks hold sequencing errors
measuredAttribute: polyreactivity (PSR sort gate)

QVQLVESGGGLVQAGGSLRLSCAASGRIFNRYAMGWYRQAPGKERELVAAISASGDNTYYADSVKGRFTISRDNAKKNVYLQMNSLKPEDTAVYYCAARYYTYLHFRMYYWGQGTQVTVSS; high polyreactivity
QGQLVESGGGLVQAGGSLRLSCAASGLTFGSYTMGWYRQAPGKERELVAAITSDGSTNYADSVKGRFTISRDNAKNTVYLQMNSLKPEDTAVYYCAATRVSYRQFKAIGYHYWGQGTQVTVSS; high polyreactivity

---

experiment: yeast display, Sf9 membrane polyspecificity reagent, FACS + sequencing; frameworks hold sequencing errors
measuredAttribute: polyreactivity (PSR sort gate)

Below, 6 sequences whose answers are already recorded.
QVQLVESGGGLVQAGGSLRLSCAASGRIVKYAMGWYRQAPGKERELVAAITSGGSTTYADSVKGRFTISRDNAKNTVYLQMNSLKPEDTAVYYCKALRRARYTRKGYEYWGQGTQVTVSS; high polyreactivity
QVQLVESGGGLVQAGGSLRLSCAASGFTFNGYAMGWYRQAPGHERELVAGITRRGGITYYADSVKGRFTISRDNAKNTVYLPMNSLKPEDTAVYYCARDYIGHALIHHASLYYYWGQGTQVTVSS; high polyreactivity
QVQLVESGGGLVQAGGSLRLSCAASGSIFYRNAMGCSRQARGKERELVAAISSSGTRTYYADSVKGRFTISRDNAKNTVYLQMNILKPEDTAVYYCAAGVVLWYRRRYYYWGQGTQVTVSS; high polyreactivity
QVQLVESGGGLVQAGGSLRLTCAASGITLGFYAMGWYRQAPGKERELVAAISGRGGSTYYADSVKGRFTISRDNAKNTVYLKMNSLKPEDTPVYYCNALGYYQLVTPFYYWGQGTQVTVSS; high polyreactivity
QVQLVESGGGLVQAGGSLRLSCAASGLTFYQNDLGWYRQAPGKERELVAAITLSGDITYYADSVKGRFTISRDNAKNTVFLQMNSLKPEDTAVYYCNADLYVDPWTYFGYDYWGQGTQVTVSS; low polyreactivity
QVQLVESGGGLVQAGGSLRLTCAASGSIFVRNSMGWYRQAPGKERELVAAIIRSGGSTYYADSVKGRFTISRDNAKNTVYLQMNSLKPEDTAVYYCNALIRYNRYTGRDYWGQGTQVTVSS; high polyreactivity

Prompt: Quick check: polyreactivity (PSR sort gate) of QVQLVESGGGLVQAGGSLRLSCAASGSTFSQNAMGWYRQAPGKERELVAAITSGGITYYADSVKGRFTISRDNAKNTVYLQMNSLKPEDTAVYYCAADFWPSGRGVAFDYWGQGTQVTVSS ?
Response: low polyreactivity

Prompt: Quick check: polyreactivity (PSR sort gate) of QVQLVESGGGLVQAGGSLRLSCAASGRTFQYNAMGWNTQAPGKERELVAAISSGGSTYYADSVKGRFTISRDNAKNTVYLQMNSLKPEDTAVYYCNAVTGYQHVKYRYYYWGQGTQVTVSS ?
Response: low polyreactivity

Prompt: Quick check: polyreactivity (PSR sort gate) of QVQLVQSGGGLVQAGGSLRLSCADSGSIFEYYTMGWYRQAPGKERELVAAISDGGSTYYADSVKGRFTISRDNAKNTVYLQMYSLKPEDTAVYYCAAEYQQDFWVAVDYWGQGTQVSVSS ?
Response: low polyreactivity

Prompt: Quick check: polyreactivity (PSR sort gate) of QVQHVESGGGLVQAGGSLLLSCAASGSIFGGNAKGWYRQAPGKERELVAVITSRGGSTYYADSVKGRFTISRDNAKNTVSLQMNSLKPEDTAVYYCNKRYLNRREGTDDYWGQGTQVTVSS ?
Response: high polyreactivity

Prompt: Quick check: polyreactivity (PSR sort gate) of QVQLVESGGGLVQAGGSLRLSCAASGSIFRGNAMGWYRQAPGKERELVAGINRAGSTKYADSVKGRFTISRDNAKNTVYLLMNSLKPEETAVYYCAARGYSSEYDYWGKGTQVTVSS ?
Response: high polyreactivity

---

experiment: yeast display, Sf9 membrane polyspecificity reagent, FACS + sequencing; frameworks hold sequencing errors
measuredAttribute: polyreactivity (PSR sort gate)

Below, 4 sequences whose answers are already recorded.
QVQLEESGGGLVQAVGSLRLTCAASGLIFKSNAMGWYRQAPGKERQLVAAITRTGGSTYYADSVKGRFTISRDNAKNTVYLQMNSLKPEDTAVYYCAVLYDRYGRAYYYWGQGTQVTVSS; high polyreactivity
QVQLVESGGGLVQAGVSLRLSCSASGRTFSGYAMGWYRQAPGKERELVAAISGGTSTNYADSVKGRFTISRDNAKNSVYLPMNSLKPEDTAVYYCNTDVPDPYWAYWTGGYDYWGQGTHVTVSS; low polyreactivity
QVQLVESGGGLVQAGGSLRLSCAASGRTFWGYVKGWYRQAPGKERELVAAITSSTGRTYYADSVKGRFTISRDNAKNTVYLQMNSLKPEDTAVYYCAAGYNGYGLQYYYWGQGTQVTVSS; high polyreactivity
QVQLVESGGGLVQAGGSLPLSCAASGYTFQRYAMGWYRQAPGKERELVAAITGAGGSTYYADSVKGRFTISRDNAKNTVYLQMNSLKPEDTAVYYCAARQYRRVIKHGYNYWGQGTQVTVSS; high polyreactivity

Let us examine a further case.
Prompt: Quick check: polyreactivity (PSR sort gate) of QVQLEESGGGLVQAGGSLRLSCAASGFTLEYYAMGWYRKAPGKERELVAVITESDGNTYYADSVKGRFTISRDNAKNTVYLQMNSLKPEDTAVYYCAAEYRDGYRFSYDYWGQGTQVTVSS ?
Response: low polyreactivity

---

experiment: yeast display, Sf9 membrane polyspecificity reagent, FACS + sequencing; frameworks hold sequencing errors
measuredAttribute: polyreactivity (PSR sort gate)

Below, 4 sequences whose answers are already recorded.
QVQLVESGGGLVQAGGSLRLSCAAYGRIFAYYAMGWYRQAPGKERELVAAISSGGTTNYADSVKGRFTISRDNAKNTVYLQMNSLKPEDTAVYYCNADGWRRSRQYYYWGQGTQVTVSS; low polyreactivity
QVQLVESGGGLVQAGGSLRLSCAASGRIFKGYAMGWYRLAPGKERELVAAITSGGNTNYADSVKGRFTISRDNAKNTVYLQMNSLKPEDTAVYYCAARPRFVYSYPYYYWGQGTQVTVSS; high polyreactivity
QVQLVESGGGLVQAGGSLRLSCDASGRIFGSYAMGWYRQAPGKERELVAAITYSGGRTYYADSVKGRFTISRDNAKNTVYLQMNSLKPEDTAVYYCNALGRLTSQYDYWGQGTQVTVSS; high polyreactivity
QVQLQESGGGLVQAGGSLRLSCAASGNISSYYRMGSYRQAPGKEREFVATIAVGGTTNYADSVKGRFTISRDNAKNTVYLQMNSLKPEDTAVCFCAANSTQYTWFDYWGQGTQVPVSS; low polyreactivity

Let us examine a further case.
Prompt: Quick check: polyreactivity (PSR sort gate) of QVQLVESGGGLVQAGGSLRLSCAASGRIFCGYAMGWYRQAPGKERELVAAITSGGRTYYADSVKGRFTISRDNAKNTVYLQMNSLKPEDTAVYYCAAVYVPYYWLGRSRGLDYWGQGTQVTVSS ?
Response: high polyreactivity

---

experiment: yeast display, Sf9 membrane polyspecificity reagent, FACS + sequencing; frameworks hold sequencing errors
measuredAttribute: polyreactivity (PSR sort gate)

Below, 5 sequences whose answers are already recorded.
QVQLVESGVGLVQAGGSLRLSCAASGSTFANNAMGWYRQAPGKERELVAAISWSGGSTYYADSVKGRFTISRDNAKNTVYLQMNSLKPEDTAVYYCAADSPRYGGYGYWGQGTQVTLSS; low polyreactivity
QVQLVESGGGLVQAGGSLRLSCAASGLIYFYAMGWYRQAPGKERELVAAISSSGGRTYYADSVKGRFTISRDNAKNTVYLQMNSLKPEDTAVYYCAVVSSHYIGPGRNGYDYWGQGTQVTVSS; high polyreactivity
QVQLVESGGGLVQAGGSLRLSCAASGIIFFRYAMGWYRQAPGKEREWVAGISGSGGSTYYADSVKGRFTMSRDNAKNTVYLQMNSLKPEDTAVYYCAKRYYRPVPGGYYWGQGTQVTVSS; high polyreactivity
QVQLVESGGGLVQAGGILRLSCAASGSTFNDYAMGRYRQAPGKERELVAAISASGSITYYADSVKGRFTISRDIAKNTVNLQMISLKPEDTAVYYCNARGYRGYDYWGQGTQVTVSS; high polyreactivity
QVQLVESAGGLVQEGGSLRLSCAASGSTFGDNAMGWYSQAPGKERELVAAITSVGTTYYADSVKGRFTISRDNAKNTVYLQMNSLKPEDSAVYDCNADWSWYNYYDFDYWGQGTQVTVSS; low polyreactivity

Prompt: Quick check: polyreactivity (PSR sort gate) of QVQLVESGGGLVQAGGSLRLSCAASGSTFTSYAMGWYRQAPGKERELVAAINWSGGSTYYADSVKGRFTISRDIAKNTVYLQMNSLKPEDTAVYYCAVLYRYGYDYWGQGTQVTVSS ?
Response: low polyreactivity

Prompt: Quick check: polyreactivity (PSR sort gate) of QVQLVESVGGIVQAGGSLRLSCAASGGICYEYAMGWYRQAPGKERELVATISFNVASTYADSVKGRFTISRDNAKNTVYLQMNSLKPEDTAVDYCIADTYWDRDSRYDYWGLGTQVTVSS ?
Response: low polyreactivity

Prompt: Quick check: polyreactivity (PSR sort gate) of QDQLVESGGGLVQAGGSLRLSCAASGRTFGTNARGWYRQAPGKERELVAGINYSDGSTYYADSVKGRFTISRDNAKNTVYLQMNSLKPEVTAVYYCAADPGWAWWELYYWGQGTQVTVSS ?
Response: low polyreactivity

Prompt: Quick check: polyreactivity (PSR sort gate) of QVQLVESGGGLVQAGGSLRLSCAASGSIFRYYVMGWYRQAPGKEREFVAAISYRGGSTYYADSVKGRFTISRDNAKNTVYLEMNSLKPEDTAVYFCYAVHYRSFWTPGSNDYWGQGTQVTVSS ?
Response: high polyreactivity

Prompt: Quick check: polyreactivity (PSR sort gate) of QVQLVETGGGLVQEGGSLRISCAASGSLFDVYAMGWYRQAPGKERELVAAISSSGSTYYADSVKGRFTISRDNAKNTVYLQMNSLKTEDTAVYYCAADQADDDDYYYWGQGTQVTVSS ?
Response: low polyreactivity

Prompt: Quick check: polyreactivity (PSR sort gate) of QVQLVESGGGLVQAGGSLRLSCAASGSNFDNAKGWYRQAPGKERELVAAITSGGITNYADSVKGRFTNSRDNAKKTVYLQMNSQKPEDTAVYYCNTMSPTQTKYDYWGQGTQVTVSS ?
Response: low polyreactivity
